system: HS 578T; test: NCI-60 single dose screen, sulforhodamine B; format: cell-based, human; settings: Breast cancer HS 578T; single dose 10^−5 M

{"LINE_NOTATION": "Cc1ccc(S(=O)(=O)Nn2c(COc3ccccc3)nc3ccccc3c2=O)cc1", "GI% at 10^−5 M": "– (– means GI < 10%)"}
{"LINE_NOTATION": "O=c1c2ccccc2nc(COc2ccccc2)n1N=CC=Cc1ccccc1", "GI% at 10^−5 M": "– (– means GI < 10%)"}
{"LINE_NOTATION": "COc1cc(C=Nn2c(COc3ccccc3)nc3ccccc3c2=O)ccc1O", "GI% at 10^−5 M": "– (– means GI < 10%)"}

* * *

test system: K-562; test: NCI-60 single dose screen, sulforhodamine B; format: cell-based, human; settings: Leukaemia K-562; single dose 10^−5 M
READOUT_LABEL: GI% at 10^−5 M

{"LINE_NOTATION": "COc1cc(C=Nn2c(COc3ccccc3)nc3ccccc3c2=O)ccc1O", "REPORTED_MEASUREMENT": "– (– means GI < 10%)"}
{"LINE_NOTATION": "O=c1c2ccccc2nc(COc2ccccc2)n1NS(=O)(=O)c1ccccc1", "REPORTED_MEASUREMENT": "– (– means GI < 10%)"}
{"LINE_NOTATION": "O=c1c2ccccc2nc(COc2ccccc2)n1NS(=O)(=O)c1ccc(Cl)cc1", "REPORTED_MEASUREMENT": "52.75%"}
{"LINE_NOTATION": "O=C(CNn1c(COc2ccccc2)nc2ccccc2c1=O)Nc1ccccc1", "REPORTED_MEASUREMENT": "– (– means GI < 10%)"}
{"LINE_NOTATION": "O=C(CN1CCN(c2ccccc2)CC1)Nn1c(COc2ccccc2)nc2ccccc2c1=O", "REPORTED_MEASUREMENT": "– (– means GI < 10%)"}

Here's the next entry for you.
Q. // returns reported GI% at 10^−5 M for input COc1ccc(N2CCN(CC(=O)Nn3c(COc4ccccc4)nc4ccccc4c3=O)CC2)cc1
A. – (– means GI < 10%)

* * *

tested on: M14; test: NCI-60 single dose screen, sulforhodamine B; format: cell-based, human; conditions: Melanoma M14; single dose 10^−5 M
READOUT_LABEL: GI% at 10^−5 M

The examples below pair each entry with its known result.
{"LINE_NOTATION": "O=c1c2ccccc2nc(COc2ccccc2)n1N=CC=Cc1ccccc1", "GI% at 10^−5 M": "– (– means GI < 10%)"}
{"LINE_NOTATION": "COc1ccc(NC(=O)CNn2c(COc3ccccc3)nc3ccccc3c2=O)cc1", "GI% at 10^−5 M": "– (– means GI < 10%)"}
{"LINE_NOTATION": "O=C(CNn1c(COc2ccccc2)nc2ccccc2c1=O)Nc1ccccc1", "GI% at 10^−5 M": "– (– means GI < 10%)"}
{"LINE_NOTATION": "O=c1c2ccccc2nc(COc2ccccc2)n1NS(=O)(=O)c1ccccc1", "GI% at 10^−5 M": "– (– means GI < 10%)"}
{"LINE_NOTATION": "COc1ccc(N2CCN(CC(=O)Nn3c(COc4ccccc4)nc4ccccc4c3=O)CC2)cc1", "GI% at 10^−5 M": "– (– means GI < 10%)"}

Q. // returns reported GI% at 10^−5 M for input Cc1ccc(S(=O)(=O)Nn2c(COc3ccccc3)nc3ccccc3c2=O)cc1
A. – (– means GI < 10%)

Q. // returns reported GI% at 10^−5 M for input COc1cc(C=Nn2c(COc3ccccc3)nc3ccccc3c2=O)ccc1O
A. – (– means GI < 10%)

Q. // returns reported GI% at 10^−5 M for input CN1CCN(CC(=O)Nn2c(COc3ccccc3)nc3ccccc3c2=O)CC1
A. 21.06%

Q. // returns reported GI% at 10^−5 M for input O=C(CNn1c(COc2ccccc2)nc2ccccc2c1=O)Nc1ccc(Cl)cc1
A. – (– means GI < 10%)

Q. // returns reported GI% at 10^−5 M for input O=c1c2ccccc2nc(COc2ccccc2)n1NS(=O)(=O)c1ccc(Cl)cc1
A. 25.84%

Q. // returns reported GI% at 10^−5 M for input O=C(CN1CCN(c2ccccc2)CC1)Nn1c(COc2ccccc2)nc2ccccc2c1=O
A. – (– means GI < 10%)
